FYI, the data here is from PubChem BioAssay (NCI).

# Test system: MDA-MB-435 melanoma
# Protocol Notes: NCI-60 one-dose screen, 48 h (100 = growth as untreated, 0 = no growth, -100 = all killed)
# Condition Parameters: 10 µM unless noted
About 83,000 compounds went through this panel and 20% of them were active in at least one assay; those are over-represented in the sample as a whole.
Quantity Name: growth (%)

Compound: CCOC(=O)c1ccc(C(C)(C)C)cc1
Quantity Name: growth
Numeric Result: 108
--
Compound: NC(=O)c1cc2c3ccccc3ccn2c1-c1ccccc1
Quantity Name: growth
Numeric Result: -13.5
--
Compound: O=C(O)CC1=CCCCC1
Quantity Name: growth
Numeric Result: 101
--
Compound: C=CCc1cc(OC)c(OC)c(OC)c1
Quantity Name: growth
Numeric Result: 108
--
Compound: O=C(CCl)Nc1ccccc1SCc1cc(Cl)cc2c1OCOC2
Quantity Name: growth
Numeric Result: 24.1
--
Compound: CCCCn1cnc2c(=O)[nH]cnc21
Quantity Name: growth
Numeric Result: 100
--
Compound: CC(C)N1CC(=O)N2CSCC2C1=O (configuration not stated)
Quantity Name: growth
Numeric Result: 105
--
Compound: Nc1nnc2cc(F)ccc2n1
Quantity Name: growth
Numeric Result: 118
--
Compound: COC1(OC)C2(Cl)C(Cl)=C(Cl)C1(Cl)C1COCC12 (configuration not stated)
Quantity Name: growth
Numeric Result: 99
--
Compound: Cn1c(=O)c2nc3c(=O)n(C)c(=O)n(C)c3nc2n(C)c1=O
Quantity Name: growth
Numeric Result: 112
--
Compound: COC1=C(OC)C(=O)C(SC/C=C(\C)CCCC(C)CCCC(C)CCCC(C)C)=CC1=O (configuration not stated)
Quantity Name: growth
Numeric Result: 18.5
--
Compound: O=Cc1ccc(F)cc1
Quantity Name: growth
Numeric Result: 97.9

----------
This listing pairs compounds with measured growth.
# Test system: BT-549 breast
# Protocol Notes: NCI-60 one-dose screen, 48 h (100 = growth as untreated, 0 = no growth, -100 = all killed)
# Condition Parameters: 10 µM unless noted
This is part of a sample that, as a whole, favours compounds with a hit. Of some 83,000 tested, about 20% had one in any assay.

Compound: Cc1ccnc(Nc2nc3ccccc3[nH]2)n1
growth, %: 112
//
Compound: CC(=O)NC(CCC(=O)c1ccccc1)C(=O)O (stereo not given)
growth, %: 76.9
//
Compound: O=S(=O)(O)c1ccc(O)c(C2CCCCC2)c1
growth, %: 98.2
//
Compound: CCNc1ccc2ccccc2c1N=Nc1ccc(N=Nc2ccccc2)cc1
growth, %: 120
//
Compound: Cc1ccc(S(=O)(=O)NC(=O)NCCSSCCNC(=O)NS(=O)(=O)c2ccc(C)cc2)cc1
growth, %: 125
//
Compound: Nc1ccn(C2OC(CO)C(O)C2F)c(=O)n1 (stereo not given)
growth, %: 93.9
//
Compound: CCCCCC#CC(=O)O
growth, %: 64.1
//
Compound: CCCC(=O)CC(=O)c1ccccc1
growth, %: 101
//
Compound: OC(CBr)CCBr (stereo not given)
growth, %: 124
//
Compound: COc1cc(OC)c2cc(C(=O)c3ccc(C#N)cc3)c(=O)oc2c1
growth, %: 87.3
//
Compound: CCNC(=O)OCCc1c2ccccc2nc2ccccc12
growth, %: 111
//
Compound: COC1OC(C(COC(C)=O)OC(C)=O)C(OC(C)=O)C(OC(C)=O)C1OC(C)=O (stereo not given)
growth, %: 106
//
Compound: Cc1ccc(S(N)(=O)=O)cc1Cl
growth, %: 77.9
//
Compound: COC(=O)C1(CC(C)=O)NC(=S)NC(=O)C1C#N (stereo not given)
growth, %: 108
//
Compound: O=C(O)c1ccc([N+](=O)[O-])cc1S(=O)(=O)O
growth, %: 108
//
Compound: C(=C\c1ccncc1)/c1ccncc1
growth, %: 91.2
//
Compound: CC(C)N1CC(=O)N2CSCC2C1=O (stereo not given)
growth, %: 110
//
Compound: COC(=O)c1ccccc1C(=O)c1c(C)cc(C)cc1C
growth, %: 106
//
Compound: COc1ccc(C2CCCCC2=O)cc1 (stereo not given)
growth, %: 111
//
Compound: C=C1C(=O)C2CCC1C2 (stereo not given)
growth, %: 93
//
Compound: Cc1ccc(N)c(S(=O)(=O)O)c1
growth, %: 104
//
Compound: COc1cc(N)c2ncccc2c1Cl
growth, %: 87.5
//
Compound: Cc1onc(-c2ccccc2Cl)c1C(=O)Cl
growth, %: 117
//
Compound: CC(=O)NNC(=S)N/C=C/c1c(C)ccc([N+](=O)[O-])c1[N+](=O)[O-]
growth, %: 99.9
//
Compound: Clc1cccc(Cl)c1CSc1nc2ccccc2n2cccc12
growth, %: 98.7
//
Compound: O=C(CC(CC(=O)c1ccccc1)c1ccccn1)c1ccccc1
growth, %: 101
//
Compound: c1cc(CNCCNCc2ccncc2)ccn1
growth, %: 117
//
Compound: CSc1nc2[nH]ncc2c(=O)[nH]1
growth, %: 88.9
//
Compound: CC(=O)c1cccc(N(C)S(=O)(=O)c2ccc(C)cc2)c1
growth, %: 82.8
//
Compound: O=C1C=CC(=O)C2=C1CCCC2
growth, %: 91.6
